# Assay name: aqueous solubility of the salts and solvates
# Type: physicochemical
# Condition set: water
Measured metric: solubility

Note to self: solubility recorded for C[C@@H](c1nc(-c2ccc(C#N)cc2)cs1)[C@@](Cn1cncn1)(OCOP(=O)(O)O)c1ccc(F)cc1F was > 200 mg/mL
